# Experimental Parameters: 403.15 K; Liquid; Closed cell (Static) method
Experimental Readout: vapor or sublimation pressure (kPa)

# Molecule, Recorded Number
rows = [
    ("CCCCCCCCCCCC(=O)OC [methyl dodecanoate]", 1.08),
]

I. CCCCCCCCCCCCCC(=O)OC [methyl tetradecanoate]
II. CCCCCCCCCCCCCCCC(=O)OC [methyl hexadecanoate]
III. CCCCCCCCCCCCCC
Asked: Order the records, beginning with the lowest vapor or sublimation pressure and ending with the highest. As an answer, provide the labels arranged in the order called for.
Given back: II, I, III
(II: 0.095 kPa, I: 0.3003 kPa, III: 1.998 kPa)

src = the NIST ThermoML archive (doi:10.1021/acs.jced.7b00099)
